Measured inhibition, listed per entry for reference.
assayed.system: Focal adhesion kinase 1 (Homo sapiens)
Sequence (Q05397 2-1052 limits assumed): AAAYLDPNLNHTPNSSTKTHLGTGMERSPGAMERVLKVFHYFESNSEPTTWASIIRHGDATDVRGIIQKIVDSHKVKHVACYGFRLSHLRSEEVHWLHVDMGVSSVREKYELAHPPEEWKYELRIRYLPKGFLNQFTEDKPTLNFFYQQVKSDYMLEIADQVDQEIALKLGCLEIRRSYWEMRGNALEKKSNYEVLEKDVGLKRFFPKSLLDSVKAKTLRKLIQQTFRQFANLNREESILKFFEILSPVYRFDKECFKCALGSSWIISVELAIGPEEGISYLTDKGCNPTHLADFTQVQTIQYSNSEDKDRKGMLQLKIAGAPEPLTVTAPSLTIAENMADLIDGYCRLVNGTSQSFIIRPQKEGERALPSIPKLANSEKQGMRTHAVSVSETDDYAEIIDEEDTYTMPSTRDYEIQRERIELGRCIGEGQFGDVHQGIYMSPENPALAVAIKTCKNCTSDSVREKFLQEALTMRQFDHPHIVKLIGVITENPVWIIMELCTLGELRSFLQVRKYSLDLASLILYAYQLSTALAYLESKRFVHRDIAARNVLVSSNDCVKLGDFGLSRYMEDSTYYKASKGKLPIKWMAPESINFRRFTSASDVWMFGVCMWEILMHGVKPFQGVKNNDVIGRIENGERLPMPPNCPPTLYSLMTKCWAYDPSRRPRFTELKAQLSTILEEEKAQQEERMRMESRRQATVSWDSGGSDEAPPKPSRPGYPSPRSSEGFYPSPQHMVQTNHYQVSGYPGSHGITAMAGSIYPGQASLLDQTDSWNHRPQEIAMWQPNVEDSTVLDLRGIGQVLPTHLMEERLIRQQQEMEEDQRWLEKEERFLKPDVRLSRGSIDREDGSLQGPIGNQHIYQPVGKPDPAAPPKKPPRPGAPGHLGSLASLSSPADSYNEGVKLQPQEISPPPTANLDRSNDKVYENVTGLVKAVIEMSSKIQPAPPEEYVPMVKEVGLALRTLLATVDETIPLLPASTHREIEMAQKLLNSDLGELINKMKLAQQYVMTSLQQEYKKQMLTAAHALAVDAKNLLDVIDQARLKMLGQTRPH
assay: Inhibition of FAK (unknown origin) at 10 nM relative to control
Give the value in % but do not write % after it.

The compound identified as `CNC(=O)c1ccccc1Nc1nc(Nc2ccc(N3CCN(C(=O)CCCc4ccc(N(CCCl)CCCl)cc4)CC3)cc2)ncc1Cl` registered its inhibition at 55.4

GET /value?item= `CNC(=O)c1ccccc1Nc1nc(Nc2ccc(N3CCN(C)CC3)cc2)ncc1Cl` &field=inhibition returns 76.4

The recorded inhibition for `CNC(=O)c1ccccc1Nc1nc(Nc2ccc(N3CCN(CCOC(=O)CCCc4ccc(N(CCCl)CCCl)cc4)CC3)cc2)ncc1C(F)(F)F` is 98.6

The measured inhibition associated with `CNC(=O)c1ccccc1Nc1nc(Nc2ccc(N3CCN(CCOC(=O)CCCc4ccc(N(CCCl)CCCl)cc4)CC3)cc2)ncc1Cl` reads 79.8

Consider `CNC(=O)c1ccccc1Nc1nc(Nc2ccc(N3CCN(CCO)CC3)cc2)ncc1Cl` . Its measured inhibition is 67.7

Consider `CNC(=O)c1ccccc1Nc1nc(Nc2ccc(N3CCN(CCOC(=O)CCCc4ccc(N(CCCl)CCCl)cc4)CC3)cc2)ncc1C` . Its measured inhibition is 65.8
